B1: CPXM2 (parent)
chain: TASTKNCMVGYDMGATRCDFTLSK

- Variants of: B1
- ASSAY_NOTES: protein stability index of a GFP-peptide fusion (GPS, HEK-293T) (PSI 1-6); higher = more stable;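 also: lentivirally expressed fusions sorted by FACS into six bins by GFP to DsRed ratio, PSI derived from sequencing read proportions per bin multiplied by bin number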
- SETUP_CONDITIONS: c terminus: a fixed tail appended
Assign 1 (yes) whenever protein stability index does not fall below 2; assign 0 (no) whenever it does.

>  <MUTANT_LABEL>
G14L

>  <LABEL>
1 (yes)

$$$$
>  <MUTANT_LABEL>
S3E

>  <LABEL>
1 (yes)

$$$$
>  <MUTANT_LABEL>
D19N

>  <LABEL>
1 (yes)

$$$$
>  <MUTANT_LABEL>
M8P

>  <LABEL>
1 (yes)

$$$$
>  <MUTANT_LABEL>
C18R

>  <LABEL>
1 (yes)

$$$$
>  <MUTANT_LABEL>
G10D

>  <LABEL>
1 (yes)

$$$$
>  <MUTANT_LABEL>
S3N

>  <LABEL>
1 (yes)

$$$$
>  <MUTANT_LABEL>
D12G

>  <LABEL>
0 (no)

$$$$
>  <MUTANT_LABEL>
F20H

>  <LABEL>
1 (yes)

$$$$
>  <MUTANT_LABEL>
M8R

>  <LABEL>
0 (no)

$$$$
>  <MUTANT_LABEL>
D12C

>  <LABEL>
0 (no)

$$$$
>  <MUTANT_LABEL>
M8L

>  <LABEL>
1 (yes)

$$$$
>  <MUTANT_LABEL>
D19L

>  <LABEL>
1 (yes)

$$$$
>  <MUTANT_LABEL>
S3Y

>  <LABEL>
0 (no)

$$$$
>  <MUTANT_LABEL>
A2F

>  <LABEL>
1 (yes)

$$$$
>  <MUTANT_LABEL>
R17Y

>  <LABEL>
1 (yes)

$$$$
>  <MUTANT_LABEL>
D19S

>  <LABEL>
1 (yes)

$$$$
>  <MUTANT_LABEL>
S3T

>  <LABEL>
1 (yes)

$$$$
>  <MUTANT_LABEL>
S23G

>  <LABEL>
1 (yes)

$$$$
